- Assay name: in vivo
- Measurement setup: NIH-III, mouse, in vivo, ip, 92.8 mg/kg
# half-life listing for each entry below
Report the figure in min without appending any unit label.

Please review the following examples before continuing.
compound="[O-][n+]1nc(CCCN2CCOCC2)[n+]([O-])c2cc3c(cc21)CCC3 [SN30000]" value_kind=half-life unit=min obs_value=19.7
compound="[O-][n+]1nc(CCCN2CCOCC2)nc2cc3c(cc21)CCC3 [M14]" value_kind=half-life unit=min obs_value=22.9

[ask] Give the reported value of half-life for this record: O=C(O)CCc1nc2cc3c(cc2[n+]([O-])n1)CCC3 [M18]
[reply] 145

* * *

# half-life listing for each entry below
- Assay name: in vivo
- Measurement setup: NIH-III, mouse, in vivo, ip, 186 mg/kg, Terminal T1/2, i.p. SN30000 186 mg/kg; plasma, non-tumour-bearing mice
Report the figure in min without appending any unit label.

sample_smiles=[O-][n+]1nc(CCCN2CCOCC2)[n+]([O-])c2cc3c(cc21)CCC3 value_kind=half-life obs_value=32.7

[ask] Give the reported value of half-life for this record: O=C(O)CCc1nc2cc3c(cc2[n+]([O-])n1)CCC3
[reply] 173

[ask] Give the reported value of half-life for this record: [O-][n+]1nc(CCCN2CCOCC2)nc2cc3c(cc21)CCC3
[reply] 37.8

* * *

- Assay name: Mouse toxicity: MTD, survival and body weight loss after single i.p. doses
- Type: in vivo, NIH-III mice
- Measurement setup: mouse, in vivo, ip, NIH-III mice, as stated for the temperature study (Figure 4)
Value kind: MTD at 2 weeks (mg/kg)
Report the figure in mg/kg without appending any unit label.

[ask] Give the reported value of MTD at 2 weeks for this record: [O-][n+]1nc(CCCN2CCOCC2)nc2cc3c(cc21)CCC3 [M14]
[reply] 135

* * *

- Assay name: in vivo
- Measurement setup: NIH-III, mouse, plasma, ip, 92.8 mg/kg
Value kind: AUC (µM·h)
Report the figure in µM·h without appending any unit label.

[ask] Give the reported value of AUC for this record: c1c2c(cc3nc(CCCN4CCOCC4)nnc13)CCC2
[reply] 5.43

* * *

# AUC listing for each entry below
- Assay name: in vivo
- Measurement setup: NIH-III, mouse, in vivo, ip, 18.6 mg/kg

Please review the following examples before continuing.
sample_smiles=O=C(O)CCc1nc2cc3c(cc2[n+]([O-])n1)CCC3 obs_value="10800 nM·h"
sample_smiles=[O-][n+]1nc(CCCN2CCOCC2)[n+]([O-])c2cc3c(cc21)CCC3 obs_value="2100 nM·h"

[ask] Give the reported value of AUC for this record: [O-][n+]1nc(CCCN2CCOCC2)nc2cc3c(cc21)CCC3
[reply] 380 nM·h

* * *

- Assay name: in vivo
- Measurement setup: NIH-III, mouse, in vivo, ip, 92.8 mg/kg
Value kind: Cmax (µM)
Report the figure in µM without appending any unit label.

Please review the following examples before continuing.
molecule="O=C(O)CCc1nc2cc3c(cc2[n+]([O-])n1)CCC3 [M18]" value_kind=Cmax obs_value=52.8
molecule="[O-][n+]1nc(CCCN2CCOCC2)[n+]([O-])c2cc3c(cc21)CCC3 [SN30000]" value_kind=Cmax obs_value=77.9

Here's the next entry for you.
[ask] Give the reported value of Cmax for this record: [O-][n+]1nc(CCCN2CCOCC2)nc2cc3c(cc21)CCC3 [M14]
[reply] 16.8
